# tgt: EGFR (Human), P00533 [T790M/L858R]
# Sequence (P00533 whole entry T790M/L858R, looked up): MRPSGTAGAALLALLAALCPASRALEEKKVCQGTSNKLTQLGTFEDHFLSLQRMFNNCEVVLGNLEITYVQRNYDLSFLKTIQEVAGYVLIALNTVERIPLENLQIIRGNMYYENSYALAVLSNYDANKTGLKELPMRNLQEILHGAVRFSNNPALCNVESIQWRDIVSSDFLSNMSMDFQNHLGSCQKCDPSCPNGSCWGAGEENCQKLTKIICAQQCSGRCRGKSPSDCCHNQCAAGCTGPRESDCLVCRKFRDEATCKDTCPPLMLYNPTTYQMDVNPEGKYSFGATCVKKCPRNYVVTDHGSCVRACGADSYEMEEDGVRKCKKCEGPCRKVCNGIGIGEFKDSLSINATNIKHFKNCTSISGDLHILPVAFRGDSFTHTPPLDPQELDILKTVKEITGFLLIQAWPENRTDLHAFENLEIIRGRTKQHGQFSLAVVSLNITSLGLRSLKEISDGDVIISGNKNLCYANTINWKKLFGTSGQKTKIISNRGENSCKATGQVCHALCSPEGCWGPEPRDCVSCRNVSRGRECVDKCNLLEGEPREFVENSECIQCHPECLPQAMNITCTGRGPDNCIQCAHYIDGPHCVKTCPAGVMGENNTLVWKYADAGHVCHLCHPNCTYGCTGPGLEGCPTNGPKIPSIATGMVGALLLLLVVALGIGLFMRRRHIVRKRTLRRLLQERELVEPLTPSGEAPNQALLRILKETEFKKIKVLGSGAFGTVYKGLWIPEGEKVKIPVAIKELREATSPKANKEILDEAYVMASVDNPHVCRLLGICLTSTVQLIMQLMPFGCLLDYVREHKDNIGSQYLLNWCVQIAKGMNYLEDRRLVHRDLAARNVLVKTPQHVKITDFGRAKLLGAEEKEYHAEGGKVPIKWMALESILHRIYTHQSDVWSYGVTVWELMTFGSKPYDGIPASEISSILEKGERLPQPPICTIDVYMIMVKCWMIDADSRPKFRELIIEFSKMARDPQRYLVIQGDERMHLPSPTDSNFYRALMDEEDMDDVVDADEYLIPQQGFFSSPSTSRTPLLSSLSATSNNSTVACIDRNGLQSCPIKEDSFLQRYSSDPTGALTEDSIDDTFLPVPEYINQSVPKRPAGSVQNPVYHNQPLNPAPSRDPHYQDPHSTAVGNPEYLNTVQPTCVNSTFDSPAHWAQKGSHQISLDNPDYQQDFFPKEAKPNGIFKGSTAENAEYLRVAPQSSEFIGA
# test-context: nci-h1975
attribute-measured: pEC50
Units for pEC50: none; it is -log10 of a concentration expressed in mol/L.

Below, each entry is followed by its recorded pEC50 result.
The value of pEC50 recorded for CC(C)n1nc(N2CC[C@@H](O)C2)c2cnc(Nc3ccnc(N4CC[C@@H](O)[C@@H](F)C4)n3)cc21 when tested on EGFR (Human), P00533 [T790M/L858R] reads 6.39

Readout pEC50 for CC(C)n1nc(N[C@@H]2CCOC2)c2cnc(Nc3ccnc(-c4cnn(S(=O)(=O)C5CC5)c4)n3)cc21 , test system EGFR (Human), P00533 [T790M/L858R], was 6.11

Entry CC(C)n1nc(N2C[C@H](O)[C@@H](F)C2)c2cnc(Nc3ccnc(-c4cnn(S(=O)(=O)C5CC5)c4)n3)cc21 under EGFR (Human), P00533 [T790M/L858R] had pEC50 of 6.62

So the reported pEC50 for CC(C)n1nc(NCC(C)(C)O)c2cnc(Nc3ccnc(-c4cnn(S(=O)(=O)C5CC5)c4)n3)cc21 , on EGFR (Human), P00533 [T790M/L858R], turned out to be 5.92

Simply: CCC(C)n1nc(N2CC(C(C)O)C2)c2cnc(Nc3ccnc(-c4cnn(S(=O)(=O)C5CC5)c4)n3)cc21 (stereo unspecified) , EGFR (Human), P00533 [T790M/L858R], pEC50 = 6.27

Item CC(C)n1nc(N2CC(O)(CO)C2)c2cnc(Nc3ccnc(-c4cnn(S(=O)(=O)C5CC5)c4)n3)cc21 was tested on EGFR (Human), P00533 [T790M/L858R]; the reported pEC50 is 6.18

Item CCC(C)n1nc(N2CC[C@@H](O)C2)c2cnc(Nc3ccnc(N4CC[C@H](O)[C@H](F)C4)n3)cc21 (stereo partly specified) was tested on EGFR (Human), P00533 [T790M/L858R]; the reported pEC50 is 6.58

The reported pEC50 value, EGFR (Human), P00533 [T790M/L858R], for CC(C)Nc1nn(C(C)C)c2cc(Nc3ccnc(-c4cnn(S(=O)(=O)C5CC5)c4)n3)ncc12 reads 6.02

---
So the reported pEC50 for CC(O)C1CN(c2nn(C(C)C)c3cc(Nc4ccnc(-c5cnn(S(=O)(=O)C6CC6)c5)n4)ncc23)C1 (stereo unspecified) , on EGFR (Human), P00533 [T790M/L858R], turned out to be 6.58

Recorded pEC50 for CC[C@H](C)n1nc(N2CC(C(C)(C)O)C2)c2cnc(Nc3ccnc(N4CC[C@@H](O)[C@@H](F)C4)n3)cc21 on EGFR (Human), P00533 [T790M/L858R] was 6.37

The compound CCC(C)n1nc(N2CC[C@@H](O)C2)c2cnc(Nc3ccnc(N4CCC(S(C)(=O)=O)CC4)n3)cc21 (stereo partly specified) on EGFR (Human), P00533 [T790M/L858R]: pEC50 was 5.96

Log: EGFR (Human), P00533 [T790M/L858R], compound CC(C)n1nc(N2CC[C@@H](N)C2=O)c2cnc(Nc3ccnc(N4CCC(C)(O)CC4)n3)cc21 , pEC50 = 5.09

Item: CC(C)n1nc(N2CCOC(CO)C2)c2cnc(Nc3ccnc(-c4cnn(S(=O)(=O)C5CC5)c4)n3)cc21 (stereo unspecified) | System: EGFR (Human), P00533 [T790M/L858R] | pEC50: 6.62

====

# tgt: EGFR (Human), P00533 [T790M/L858R]
# test-context: nci-h1975
# log10 of EC50 annotations
All values: base-10 log of EC50 in nM.

Answered examples (8):
Let me check: CCC(C)n1nc(N2CC[C@@H](O)C2)c2cnc(Nc3ccnc(N4CCC(CC#N)(OC)CC4)n3)cc21 (stereo partly specified) , system EGFR (Human), P00533 [T790M/L858R], measured log10 of EC50 is 3.17

Simply: CCC(C)n1nc(N2CC(N)C(F)(F)C2)c2cnc(Nc3ccnc(N4CCC(C)(O)CC4)n3)cc21 (stereo unspecified) , EGFR (Human), P00533 [T790M/L858R], log10 of EC50 = 2.88

EGFR (Human), P00533 [T790M/L858R] log10 of EC50 of CCC(C)n1nc(N2CCCC2=O)c2cnc(Nc3ccnc(N4CCC(C)(O)CC4)n3)cc21 (stereo unspecified) is 2.76

// compound CC(C)n1nc(N2CC3CCC(C2)O3)c2cnc(Nc3ccnc(-c4cnn(S(=O)(=O)C5CC5)c4)n3)cc21 , assay EGFR (Human), P00533 [T790M/L858R], log10 of EC50 value: 3.08

// assay EGFR (Human), P00533 [T790M/L858R], entry CC(C)n1nc(N2CCNC(=O)C2)c2cnc(Nc3ccnc(-c4cnn(S(=O)(=O)C5CC5)c4)n3)cc21 , log10 of EC50 value = 2.87

Given the compound CC(C)n1nc(N2CC(C(=O)N3CC[C@H](CO)C3)C2)c2cnc(Nc3ccnc(-c4cnn(S(=O)(=O)C5CC5)c4)n3)cc21 and test system EGFR (Human), P00533 [T790M/L858R], the measured log10 of EC50 is 3.06

Summary line: CCS(=O)(=O)n1cc(-c2nccc(Nc3cc4c(cn3)c(N3CC(C(=O)N(C)C)C3)nn4C(C)C)n2)cn1 , EGFR (Human), P00533 [T790M/L858R], reported log10 of EC50 = 2.37

# value of log10 of EC50, EGFR (Human), P00533 [T790M/L858R], item CC(C)n1nc(N2CC3(CN(CC(F)(F)F)C3)C2)c2cnc(Nc3ccnc(-c4cnn(S(=O)(=O)C5CC5)c4)n3)cc21 = 3.06

New cases:
Response field log10 of EC50 (EGFR (Human), P00533 [T790M/L858R]) for item CCC(C)n1nc(N2CC3(COC3)C2)c2cnc(Nc3ccnc(N4CCC(C)(O)CC4)n3)cc21 (stereo unspecified) : 2.94

log10 of EC50 on EGFR (Human), P00533 [T790M/L858R] for CC(C)n1nc(N2CCC3(CNC(=O)C3)C2)c2cnc(Nc3ccnc(-c4cnn(S(=O)(=O)C5CC5)c4)n3)cc21 (stereo unspecified) is 3.25

Test item CCN1CCN(c2nn(C(C)C)c3cc(Nc4ccnc(-c5cnn(S(=O)(=O)C6CC6)c5)n4)ncc23)C1=O ; EGFR (Human), P00533 [T790M/L858R]; reported log10 of EC50 was 2.97

// log10 of EC50 (EGFR (Human), P00533 [T790M/L858R]) for CC(C)n1ncc2cnc(Nc3ccnc(N4CCC(O)C(C)(C)C4)n3)cc21 (stereo unspecified) = 2.04

Observed log10 of EC50 on EGFR (Human), P00533 [T790M/L858R], entry CC(C)n1nc(N2CC(F)(F)C2)c2cnc(Nc3ccnc(-c4cnn(S(=O)(=O)C5CC5)c4)n3)cc21 , equals 2.49

So the reported log10 of EC50 for CC(C)n1nc(N[C@H]2CCOC2)c2cnc(Nc3ccnc(-c4cnn(S(=O)(=O)C5CC5)c4)n3)cc21 , on EGFR (Human), P00533 [T790M/L858R], turned out to be 2.57

Reading of log10 of EC50 for CCNC(=O)C1CN(c2nn(C(C)C)c3cc(Nc4ccnc(-c5cnn(S(=O)(=O)C6CC6)c5)n4)ncc23)C1 with EGFR (Human), P00533 [T790M/L858R]: 2.68

====

# tgt: EGFR (Human), P00533 [T790M/L858R]
# test-context: nci-h1975
attribute-measured: EC50 (µM)
// units = µM; emit number, no label

For orientation, consider the following solved cases.
get_value(item= CCC(C)n1nc(N2C[C@@H](CO)NC2=O)c2cnc(Nc3ccnc(-c4cnn(S(=O)(=O)C5CC5)c4)n3)cc21 (some centres not stated) , readout=EC50) returns 5.59

Entry COCC1CN(c2nn(C(C)C)c3cc(Nc4ccnc(-c5cnn(S(=O)(=O)C6CC6)c5)n4)ncc23)C1 , EC50 reported as 0.211

Continuing:
Query CC[C@@H](C)n1nc(N2CC3(COC3)C2)c2cnc(Nc3ccnc(OCC(C)(C)S(C)(=O)=O)n3)cc21 yields EC50 of 1.24

What the record says about CC(C)n1nc(N2CCCC2=O)c2cnc(Nc3ccnc(-c4cnn(S(=O)(=O)C5CC5)c4)n3)cc21 : EC50 is 0.232

Value of measured EC50 for the entry CC(C)n1nc(N2CC(C(=O)N3CC4CCC(C3)O4)C2)c2cnc(Nc3ccnc(-c4cnn(S(=O)(=O)C5CC5)c4)n3)cc21 : 0.283

Where do these numbers come from? They come from the Kinase Knowledgebase extract (Sharma et al. 2016).
